- study-system: hERG potassium channel (Homo sapiens, UniProt Q12809)
- Construct: host or cells: CHO cells stably expressing hERG
- Sequence (Q12809 whole entry): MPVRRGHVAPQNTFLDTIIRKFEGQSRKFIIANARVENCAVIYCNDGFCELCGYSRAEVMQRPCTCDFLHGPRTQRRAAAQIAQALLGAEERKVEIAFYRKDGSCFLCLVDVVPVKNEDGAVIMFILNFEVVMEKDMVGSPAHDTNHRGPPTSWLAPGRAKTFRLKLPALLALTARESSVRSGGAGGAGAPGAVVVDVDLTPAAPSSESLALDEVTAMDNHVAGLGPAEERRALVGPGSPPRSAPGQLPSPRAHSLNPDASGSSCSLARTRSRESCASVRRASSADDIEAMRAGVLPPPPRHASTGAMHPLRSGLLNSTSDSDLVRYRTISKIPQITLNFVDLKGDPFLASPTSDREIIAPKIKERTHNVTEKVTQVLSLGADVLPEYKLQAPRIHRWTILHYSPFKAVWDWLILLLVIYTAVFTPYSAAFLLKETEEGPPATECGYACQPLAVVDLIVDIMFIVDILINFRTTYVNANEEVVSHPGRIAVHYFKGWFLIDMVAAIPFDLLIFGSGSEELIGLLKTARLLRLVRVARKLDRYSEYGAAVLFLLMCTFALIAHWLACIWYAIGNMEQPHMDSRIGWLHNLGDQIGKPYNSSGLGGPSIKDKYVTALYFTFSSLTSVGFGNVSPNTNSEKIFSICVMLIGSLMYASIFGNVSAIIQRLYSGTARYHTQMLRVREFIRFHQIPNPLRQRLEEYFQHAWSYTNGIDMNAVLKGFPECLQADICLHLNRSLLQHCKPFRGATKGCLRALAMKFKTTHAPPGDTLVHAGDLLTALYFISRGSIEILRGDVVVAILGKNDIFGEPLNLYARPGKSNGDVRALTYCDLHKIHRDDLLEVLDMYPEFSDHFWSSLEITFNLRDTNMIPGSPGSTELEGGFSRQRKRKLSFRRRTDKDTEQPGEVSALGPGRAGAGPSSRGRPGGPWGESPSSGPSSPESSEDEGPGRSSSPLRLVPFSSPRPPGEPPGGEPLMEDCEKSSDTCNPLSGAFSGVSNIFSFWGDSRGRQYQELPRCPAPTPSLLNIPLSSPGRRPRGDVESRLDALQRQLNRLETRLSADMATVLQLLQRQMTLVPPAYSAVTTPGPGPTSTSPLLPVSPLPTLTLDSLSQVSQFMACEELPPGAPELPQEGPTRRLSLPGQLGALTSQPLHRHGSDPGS
- assay-protocol: Inhibition of hERG potassium channel, automated patch clamp (SyncroPatch 384PE) in CHO cells
- Format: cell-based
measured-metric: IC50

Task: Requested read-out: IC50. Entry: NCCN1CCN(c2cnc3c(cc(C(=O)NCc4ccc(Cl)cc4)c(=O)n3CC(=O)N3CC4(CC4)C3)n2)C1=O [Compound 36]
Output: > 10 µM

Task: Requested read-out: IC50. Entry: CN1C(=O)CN(c2cnc3c(cc(C(=O)NCc4ccc(Cl)cc4)c(=O)n3CC(=O)N3CC4(CC4)C3)n2)C1=O [Compound 15]
Output: < 10 µM

Task: Requested read-out: IC50. Entry: CC(C)(C(=O)O)N1CCN(c2cnc3c(cc(C(=O)NCc4ccc(Cl)cc4)c(=O)n3CC(=O)N3CC4(CC4)C3)n2)C1=O [Compound 44]
Output: > 10 µM

Each recorded value in this set is attributed to patent US20230136702A1.
